This listing pairs molecules with measured inhibition at 3.3 µM.
Molecular target: HIV-1 protease (Human immunodeficiency virus type 1 group M subtype B)
Construct: The protease (or proteinase), consisting of only 99 amino acids, is among the smallest enzymes known
Test: In vitro HIV protease inhibitory assay (HIV Protease FITC Assay)
Type: biochemical
Settings: HIV-1 Dose 3.300 uM; read-out: HIV-1 Protease % Inhib
Report as a plain number; the unit % is understood.

molecule: Cc1ccc(C(O)Cc2cc(O)c(C(c3ccccc3)C3CC3)c(=O)o2)cc1 (centres unmarked) [Example 147]
measuredProperty: inhibition at 3.3 µM
quantitativeReadout: 52.6
--
molecule: CCC(C1=C(O)CC(Cc2ccccc2)(Cc2ccccc2)OC1=O)c1ccccc1 (centres unmarked) [Example 120]
measuredProperty: inhibition at 3.3 µM
quantitativeReadout: 26.2
--
molecule: CCC(Cc1ccccc1)c1cc(O)c(C(c2cccc(NC(=O)[C@H](C)NC(=O)OC(C)(C)C)c2)C2CC2)c(=O)o1 (some centres unmarked) [Example 221]
measuredProperty: inhibition at 3.3 µM
quantitativeReadout: 102
--
molecule: O=c1oc(CCc2ccc(Cl)cc2)cc(O)c1C(c1ccccc1)C1CC1 (centres unmarked) [Example 166]
measuredProperty: inhibition at 3.3 µM
quantitativeReadout: 39.8

Next molecule, please.
What is its inhibition at 3.3 µM for HIV-1 protease (Human immunodeficiency virus type 1 group M subtype B)? Entry: CC(C)CC1(CCc2ccccc2)CC(O)=C(C(c2ccccc2)c2ccccc2)C(=O)O1 (centres unmarked) [Example 209]
59.9

###

Molecular target: HIV-1 protease (Human immunodeficiency virus type 1 group M subtype B, UniProt P04585)
Construct: The protease (or proteinase), consisting of only 99 amino acids, is among the smallest enzymes known
Assay: In vitro HIV protease inhibitory assay (HIV Protease FITC Assay)
Format: biochemical
Conditions: HIV-1 Dose 10.000 uM; read-out: HIV-1 Protease % Inhib
measuredProperty: inhibition at 10 µM (%)
Report as a plain number; the unit % is understood.

Item under review: C=CC(C1=C(O)CC(CCCC)(Cc2ccccc2)OC1=O)c1ccccc1 (stereo not drawn) . Reported inhibition at 10 µM?
79.7

Item under review: C=CC(C1=C(O)CC2(CCCC2)OC1=O)c1ccccc1 (stereo not drawn) . Reported inhibition at 10 µM?
79.8

Item under review: O=c1oc(C(Cc2ccccc2)Cc2ccccc2)cc(O)c1C(c1ccccc1)C1CC1 (stereo not drawn) . Reported inhibition at 10 µM?
77.9

###

Target: HIV-1 protease (Human immunodeficiency virus type 1 group M subtype B, UniProt P04585)
Construct: The protease (or proteinase), consisting of only 99 amino acids, is among the smallest enzymes known
Assay: In vitro HIV protease inhibitory assay (HIV Protease FITC Assay)
Assay type: biochemical
Conditions: HIV-1 Dose 0.370 uM; read-out: HIV-1 Protease % Inhib
This listing pairs compounds with measured inhibition at 0.37 µM.
Report as a plain number; the unit % is understood.

Item under review: O=c1oc(CC(O)c2ccsc2)cc(O)c1C(c1ccccc1)C1CC1 (stereo not drawn) . Reported inhibition at 0.37 µM?
17.7

Item under review: CCC(CCCl)c1cc(O)c(C(c2ccccc2)C2CC2)c(=O)o1 (stereo not drawn) . Reported inhibition at 0.37 µM?
36

###

Biological target: HIV-1 protease (Human immunodeficiency virus type 1 group M subtype B, UniProt P04585)
Construct: The protease (or proteinase), consisting of only 99 amino acids, is among the smallest enzymes known
Experiment: In vitro HIV protease inhibitory assay (HIV Protease FITC Assay)
Type: biochemical
Conditions: HIV-1 Dose 100.000 uM; read-out: HIV-1 Protease % Inhib
This listing pairs compounds with measured inhibition at 100 µM.
Report as a plain number; the unit % is understood.

compound: COCCOCCCc1oc(=O)c(C(c2ccccc2)C2CC2)c(O)c1CCOCCOC (stereo not shown)
inhibition at 100 µM, %: 83
//
compound: CCC(c1ccccc1)c1c(O)c(Br)c(C(CC2CC2)CC2CC2)oc1=O (stereo not shown)
inhibition at 100 µM, %: 110
//
compound: CCCc1cc(O)c(C(c2ccccc2)C2CC2)c(=O)o1 (stereo not shown)
inhibition at 100 µM, %: 87.3
//
compound: COCCOCCOCCCc1cc(O)c(C(c2ccccc2)C2CC2)c(=O)o1 (stereo not shown)
inhibition at 100 µM, %: 118
//
compound: CCC(CC1CCCO1)c1cc(O)c(C(c2ccccc2)C2CC2)c(=O)o1 (stereo not shown)
inhibition at 100 µM, %: 109
//
compound: CCC(c1ccccc1)c1c(O)cc(CC(=O)Nc2ccccc2)oc1=O (stereo not shown)
inhibition at 100 µM, %: 79.8
//
compound: CCC(Cc1ccccn1)c1cc(O)c(C(c2ccccc2)C2CC2)c(=O)o1 (stereo not shown)
inhibition at 100 µM, %: 117
//
compound: CCC(c1ccccc1)c1c(O)cc(-c2ccccc2)oc1=O (stereo not shown)
inhibition at 100 µM, %: 80

Item under review: O=c1oc(C(CC2CC2)CC2CC2)cc(O)c1C(C1CCCCC1)C1CC1 (stereo not shown) . Reported inhibition at 100 µM?
87.1

Item under review: CCC(c1ccccc1)c1c(O)cc(CCc2ccc(Br)cc2)oc1=O (stereo not shown) . Reported inhibition at 100 µM?
69.7

Item under review: CCC(Cc1cccs1)c1cc(O)c(C(c2ccccc2)C2CC2)c(=O)o1 (stereo not shown) . Reported inhibition at 100 µM?
116

Item under review: CCC(CC1CCCCC1)c1cc(O)c(C(c2ccccc2)C2CC2)c(=O)o1 (stereo not shown) . Reported inhibition at 100 µM?
92.1

Item under review: C=CC(C1=C(O)CC2(CCC3(CC2)OCCO3)OC1=O)c1ccccc1 (stereo not shown) . Reported inhibition at 100 µM?
107

Item under review: CCC(c1ccccc1)c1c(O)cc(CCc2ccc3ccccc3c2)oc1=O (stereo not shown) . Reported inhibition at 100 µM?
49.9

Item under review: C=CC(c1ccccc1)c1c(O)cc(C(CCC)CCC)oc1=O (stereo not shown) . Reported inhibition at 100 µM?
80.9

Item under review: CCC(Cc1ccccc1)c1oc(=O)c(C(CC)c2ccccc2)c(O)c1Br (stereo not shown) . Reported inhibition at 100 µM?
109

Item under review: CCCC(CCC)c1cc(O)c(C(CC)c2ccccc2)c(=O)o1 (stereo not shown) . Reported inhibition at 100 µM?
80

###

Target: HIV-1 protease (Human immunodeficiency virus type 1 group M subtype B, UniProt P04585)
Construct: The protease (or proteinase), consisting of only 99 amino acids, is among the smallest enzymes known
Test: In vitro HIV protease inhibitory assay (HIV Protease FITC Assay)
Type: biochemical
Conditions: read-out: HIV-1 Protease % Inhib
measuredProperty: inhibition at 0.123 µM

Here are 2 compounds together with their reported answers.
compound: CCCC1(CCc2ccccc2)CC(O)=C(C(/C=C/c2ccccc2)c2ccccc2)C(=O)O1 (centres unmarked) [Example 170]
measuredProperty: inhibition at 0.123 µM
result: < 10%
--
compound: CCC(Cc1ccccc1)c1cc(O)c(C(c2cccc(NC(=O)Cc3ccncc3)c2)C2CC2)c(=O)o1 (centres unmarked) [Example 249]
measuredProperty: inhibition at 0.123 µM
result: < 10%

What is its inhibition at 0.123 µM for HIV-1 protease (Human immunodeficiency virus type 1 group M subtype B, UniProt P04585)? Entry: C=CC(C1=C(O)CC2(CCCCC2Cc2ccccc2)OC1=O)c1ccccc1 (centres unmarked) [Example 129]
< 10%

What is its inhibition at 0.123 µM for HIV-1 protease (Human immunodeficiency virus type 1 group M subtype B, UniProt P04585)? Entry: CCC(C1=C(O)CC2(CCCCCCC2)OC1=O)c1ccccc1 (centres unmarked) [Example 126]
< 10%

What is its inhibition at 0.123 µM for HIV-1 protease (Human immunodeficiency virus type 1 group M subtype B, UniProt P04585)? Entry: CCC(C1=C(O)CC(Cc2ccccc2)(c2ccccc2)OC1=O)c1ccccc1 (centres unmarked) [Example 169]
< 10%

###

Target: HIV-1 protease (Human immunodeficiency virus type 1 group M subtype B, UniProt P04585)
Construct: The protease (or proteinase), consisting of only 99 amino acids, is among the smallest enzymes known
Test: In vitro HIV protease inhibitory assay (HIV Protease FITC Assay)
Assay type: biochemical
Conditions: HIV-1 Dose 3.300 uM; read-out: HIV-1 Protease % Inhib
measuredProperty: inhibition at 3.3 µM (%)
Report as a plain number; the unit % is understood.

molecule: CCC(CC(=O)N1CCOCC1)c1cc(O)c(C(c2ccccc2)C2CC2)c(=O)o1 (stereo not drawn) [Example 69]
measuredProperty: inhibition at 3.3 µM
unitString: %
quantitativeReadout: 42.1
--
molecule: CCC(CCC(F)(F)F)c1cc(O)c(C(c2ccccc2)C2CC2)c(=O)o1 (stereo not drawn) [Example 136]
measuredProperty: inhibition at 3.3 µM
unitString: %
quantitativeReadout: 91.3

Next molecule, please.
Item under review: CCC(Cc1ccccc1)c1cc(O)c(C(c2cccc(NC(=O)CCn3ccc4ccccc43)c2)C2CC2)c(=O)o1 (stereo not drawn) [Example 230] . Reported inhibition at 3.3 µM?
71.3
